# key: entry, value: cell viability
- System: K562
- ASSAY PROTOCOL: cell viability relative to vehicle control; higher = less cytotoxic;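 also: after 48 h exposure read by CellTiter-Glo luminescence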
- RECORDED CONDITIONS: 10 µM; SRSF2 genotype: SRSF2 wt/wt
PROPERTY NAME: cell viability (%)

                                   compound  system_tested   property_name  reported_measurement
0  C#C[C@]1(OC(C)=O)CC[C@H]2[C@@H]3CCC4=C[C@@H](OC(C)=O)CC[C@@H]4[C@H]3CC[C@@]21C [Ethynodiol diacetate]           K562  cell viability                  80.7
1  O=C(CNc1ccc2ccccc2c1)N/N=C/c1cc(Br)c(O)c(Br)c1O           K562  cell viability                  72.8
2  Cn1ncc(Cl)c1-c1cc(C(=O)N[C@H](CN)Cc2cccc(F)c2)sc1Cl           K562  cell viability                    51
3  CCCCC1=NC2(CCCC2)C(=O)N1Cc1ccc(-c2ccccc2-c2nnn[nH]2)cc1           K562  cell viability                  86.3
4  Cc1cc(C)c2c(c1)[C@@H](N(Cc1cc(C(F)(F)F)cc(C(F)(F)F)c1)c1nnn(C)n1)CCCN2C[C@H]1CC[C@H](C(=O)O)CC1           K562  cell viability                  90.1
5  C[C@@H](Oc1cc(-n2cnc3ccc(CN4CCN(C)CC4)cc32)sc1C(N)=O)c1ccccc1C(F)(F)F           K562  cell viability                  34.1
6  CCOC(=O)C1=C(C)NC(C)=C(C(=O)OC)C1c1cccc(Cl)c1Cl (stereo not drawn)           K562  cell viability                  79.9
7               COc1ccc2cccc(CCNC(C)=O)c2c1           K562  cell viability                   104

* * *

- Tested on: MARIMO
- ASSAY PROTOCOL: cell viability relative to vehicle control; higher = less cytotoxic
- RECORDED CONDITIONS: 10 µM; SRSF2 genotype: SRSF2 P95H/wt
Counter-ions that a name gives are not always drawn.
# key: entry, value: cell viability

COMPOUND	cell viability, %
CC(=O)O[C@H](CC(=O)O)C[N+](C)(C)C [O-Acetyl-L-carnitine hydrochloride]	110
C=C1C[C@@]23CC[C@H]4[C@@](C)(CCC[C@@]4(C)C(=O)O[C@@H]4O[C@H](CO)[C@@H](O)[C@H](O)[C@H]4O)[C@@H]2CC[C@]1(O[C@@H]1O[C@H](CO)[C@@H](O)[C@H](O[C@@H]2O[C@H](CO)[C@@H](O)[C@H](O)[C@H]2O)[C@H]1O[C@@H]1O[C@H](CO)[C@@H](O)[C@H](O)[C@H]1O)C3 [Rebaudioside A]	98.8
COc1cc(OC)cc(N(CCNC(C)C)c2ccc3ncc(-c4cnn(C)c4)nc3c2)c1	50.6
COc1cc(Nc2c(C#N)cnc3cc(OCCCN4CCN(C)CC4)c(OC)cc23)c(Cl)cc1Cl [Bosutinib (SKI-606)]	38.5
CC(C)CCNc1ncccc1C(=O)N1CCN(Cc2ccccc2)CC1	93.8
CNc1cc(-c2cccc(Cl)c2Cl)nc(N)n1	12.2
CC(=O)c1ccc(NN=C(C(N)=O)C2=NC(C)(C)Cc3ccccc32)cc1	56.1
CN(Cc1ccc(C(C)(C)C)cc1)Cc1cccc2ccccc12 [Butenafine HCl]	84.1
CCCCCCCCCCCC1=C(O)C(=O)C=C(O)C1=O	90.3
CCOC(=O)C1=C(C)NC(C)=C(C(=O)OCC)C1	94.3
O=C(NO)c1cccc(C(=O)NCCc2ccccc2)c1	91.9
C/C1=C\CC[C@]23O[C@H]2[C@@H](OC3=O)c2c(C)coc2C1	104
C=CCc1ccc(OC(C)=O)c(OC)c1 [Eugenyl acetate]	89.7
O=C(O)c1ccc(O)c2ncccc12	107
CCOC(C)OCCc1ccccc1 (stereo not drawn)	97.8
CCCCCCCCCCCCCCCCCC(=O)O	107
CN(C)C(=O)[C@H](O)[C@H](Cc1ccccc1)NC(=O)c1cc2cc(Cl)ccc2[nH]1	95.3
CN[C@@H](C)C(=O)N[C@H](C(=O)N1CCC[C@H]1C(=O)Nc1snnc1-c1ccccc1)C1CCCCC1	101
